# targetOrTestSystem: PmSiaT (Proteus mirabilis, UniProt B4EZY7)
# Construct: made in house
# Sequence (B4EZY7 1-496): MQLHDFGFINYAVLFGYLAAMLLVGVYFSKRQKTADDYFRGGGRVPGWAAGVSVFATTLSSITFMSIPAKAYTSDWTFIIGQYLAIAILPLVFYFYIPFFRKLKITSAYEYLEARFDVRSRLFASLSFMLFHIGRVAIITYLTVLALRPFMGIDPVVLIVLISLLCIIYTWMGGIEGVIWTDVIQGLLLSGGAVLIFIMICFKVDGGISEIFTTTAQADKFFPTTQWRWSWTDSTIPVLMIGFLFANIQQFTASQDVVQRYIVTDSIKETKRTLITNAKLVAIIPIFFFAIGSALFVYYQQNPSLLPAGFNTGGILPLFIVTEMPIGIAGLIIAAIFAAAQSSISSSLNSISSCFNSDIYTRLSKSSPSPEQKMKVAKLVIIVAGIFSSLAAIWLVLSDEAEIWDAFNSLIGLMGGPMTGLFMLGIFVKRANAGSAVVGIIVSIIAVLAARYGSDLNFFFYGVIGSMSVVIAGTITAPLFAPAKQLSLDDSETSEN
# assay: nanoDSF thermal shift assay, PmSiaT
# Format: binding
# studyConditions: PmSiaT, three experiments, 1.25 mM
attributeMeasured: Tm average overall (°C)

[[record]]
compound = "CC(=O)NC1C(OCc2ccc(F)cc2)CC(O)(C(=O)O)OC1C(O)C(O)CO (centres unmarked) [Compound 3b]"
attributemeasured = "Tm average overall"
datavalue = 53.2

[[record]]
compound = "CC(C)C(=O)NC1C(O)CC(O)(C(=O)O)OC1C(O)C(O)CO (centres unmarked) [Compound 6b]"
attributemeasured = "Tm average overall"
datavalue = 47.1

[[record]]
compound = "CC(=O)NC1C(O)CC(O)(C(=O)O)OC1C(O)C(O)CI (centres unmarked) [Compound 8e]"
attributemeasured = "Tm average overall"
datavalue = 47.1

[[record]]
compound = "O=C(NC1C(O)CC(O)(C(=O)O)OC1C(O)C(O)CO)c1ccccc1 (centres unmarked) [Compound 6d]"
attributemeasured = "Tm average overall"
datavalue = 45.6

[[record]]
compound = "CC(=O)NC1C(OCc2ccc(C#N)cc2)CC(O)(C(=O)O)OC1C(O)C(O)CO (centres unmarked) [Compound 3d]"
attributemeasured = "Tm average overall"
datavalue = 54.4

[[record]]
compound = "[N-]=[N+]=NCC(=O)N[C@H]1[C@H]([C@H](O)[C@H](O)CO)O[C@@](O)(C(=O)O)C[C@@H]1O [Compound 6h, reference compound]"
attributemeasured = "Tm average overall"
datavalue = 49.1

[[record]]
compound = "CC(=O)NC1C(OCc2ccc(Br)cc2)CC(O)(C(=O)O)OC1C(O)C(O)CO (centres unmarked) [Compound 3c]"
attributemeasured = "Tm average overall"
datavalue = 56.2

[[record]]
compound = "CC(=O)NC1C(O)CC(O)(C(=O)O)OC1C(O)C(O)CN=[N+]=[N-] (centres unmarked) [Compound 8g]"
attributemeasured = "Tm average overall"
datavalue = 46.0

